# Assay system: rat B1R (bradykinin receptor 1) (Rattus norvegicus)
# Construct: expressed in transfected cells; host or cells: CHO K1 cells
# Sequence (P97583 1-337): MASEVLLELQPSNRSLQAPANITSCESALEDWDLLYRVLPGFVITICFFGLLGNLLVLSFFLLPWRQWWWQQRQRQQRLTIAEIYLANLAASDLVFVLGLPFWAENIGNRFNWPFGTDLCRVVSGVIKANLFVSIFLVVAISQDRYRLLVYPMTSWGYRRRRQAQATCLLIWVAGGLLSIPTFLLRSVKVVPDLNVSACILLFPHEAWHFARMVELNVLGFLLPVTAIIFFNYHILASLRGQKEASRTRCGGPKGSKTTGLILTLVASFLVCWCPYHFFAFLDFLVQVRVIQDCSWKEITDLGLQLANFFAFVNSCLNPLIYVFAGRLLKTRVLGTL
# Assay notes: FLIPR Ca2+ assay (Fluo-4) on CHO K1 cells stably transfected with the B1R gene of the rat (rB1R cells): % inhibition at 10 μM / IC50, agonist Des-Arg9-bradykinin
# Type: cell-based
# Test conditions: CHO-K1, rat B1R
Parameter measured: inhibition at 10 µM (%)

compound="CN(C(=O)c1cc(F)c(F)cc1Cl)C1CCc2ccc(C(=O)N3CCC4(CC3)CCN(c3ccncc3)CC4)cc21 (stereo not shown)" unit_info=% test_result=103
compound="O=C(c1ccc2c(c1)C(N(C(=O)c1ccccc1Cl)C1CC1)CC2)N1CCC2(CCN(Cc3cccnc3)CC2)C1 (stereo not shown)" unit_info=% test_result=86
compound="CN(C)c1ncc(CN2CCC3(CC2)CCN(C(=O)c2ccc4c(c2)C(NC(=O)c2cc(C(F)(F)F)ccc2Cl)CC4)CC3)cn1 (stereo not shown)" unit_info=% test_result=100
compound="O=C(NC1CCc2ccc(C(=O)N3CCC4(CCN(Cc5ccc(F)cc5Cl)CC4)CC3)cc21)c1ccccc1Cl (stereo not shown)" unit_info=% test_result=104
compound="Cc1cc(C(=O)N2CCC3(CCN(C(=O)c4ccc5c(c4)C(NC(=O)c4ccccc4Cl)CC5)CC3)CC2)n(C(C)(C)C)n1 (stereo not shown)" unit_info=% test_result=95
compound="CC1(C)Cc2ccc(C(=O)N3CCC4(CC3)CCN(c3ccncc3)CC4)cc2C1NS(=O)(=O)c1cccc(C(F)(F)F)c1 (stereo not shown)" unit_info=% test_result=87
compound="O=C(NC1CCc2ccc(C(=O)N3CCC4(CC3)CCN(c3ccncc3)CC4)cc21)c1ccc(Cl)s1 (stereo not shown)" unit_info=% test_result=98
compound="N#Cc1cccc(NC(=O)N2CCC3(CC2)CCN(C(=O)c2ccc4c(c2)C(N(C(=O)c2ccccc2Cl)C2CC2)CC4)C3)c1 (stereo not shown)" unit_info=% test_result=79
compound="O=C(c1ccc2c(c1)C(NS(=O)(=O)CCc1ccccc1Cl)CC2)N1CCC2(CC1)CCN(c1ccncc1)CC2 (stereo not shown)" unit_info=% test_result=101
compound="Cc1cccc(Cl)c1C(=O)NC1CCc2ccc(C(=O)N3CCC4(CCN(CC(C)C)CC4)C3)cc21 (stereo not shown)" unit_info=% test_result=73
compound="N#Cc1ccccc1CN1CCC2(CC1)CCN(C(=O)c1ccc3c(c1)C(NC(=O)c1c(F)cccc1Cl)CC3)CC2 (stereo not shown)" unit_info=% test_result=92
compound="O=C(NC1CCc2ccc(C(=O)N3CCC4(CCN(c5ccncc5)C4)C3)cc21)c1ccccc1Cl (stereo not shown)" unit_info=% test_result=106
compound="Cc1cccc(C(=O)N(C)C2CCc3ccc(C(=O)N4CCC5(CC4)CCN(c4ccncc4)CC5)cc32)c1C (stereo not shown)" unit_info=% test_result=104
compound="O=C(NC1CCc2ccc(C(=O)N3CCC4(CCN(C(=O)NCc5ccccc5)CC4)CC3)cc21)c1ccccc1Cl (stereo not shown)" unit_info=% test_result=103
compound="N#Cc1ccc(CN2CCC3(CC2)CCN(C(=O)c2ccc4c(c2)C(NC(=O)c2cc(C(F)(F)F)ccc2Cl)CC4)C3)cc1 (stereo not shown)" unit_info=% test_result=51
compound=COc1ccc(C(=O)N[C@@H]2CCc3ccc(C(=O)N4CCC5(CC4)CCN(c4ccncc4)C5)cc32)c(Cl)c1 unit_info=% test_result=101
compound="O=C(NC1CCc2ccc(C(=O)N3CCC4(CCN(CCc5ccccc5)CC4)C3)cc21)c1cccc(Cl)c1Cl (stereo not shown)" unit_info=% test_result=70
compound="O=C(NC1CCc2ccc(C(=O)N3CCC4(CCN(CC5CCCCC5)CC4)C3)cc21)c1cc(C(F)(F)F)ccc1Cl (stereo not shown)" unit_info=% test_result=55
compound="O=C(NC1CCc2ccc(C(=O)N3CCC4(CC3)CCN(c3ccncc3)C4)cc21)c1ccccc1Cl (stereo not shown)" unit_info=% test_result=102
compound="O=C(NC1CCc2ccc(C(=O)N3CCC4(CCN(Cc5ccc(F)c(F)c5)CC4)C3)cc21)c1ccccc1Cl (stereo not shown)" unit_info=% test_result=104
compound="O=C(NC1CCc2ccc(C(=O)N3CCC4(CCN(Cc5ccc6nccnc6c5)CC4)CC3)cc21)c1cc(Cl)ccc1F (stereo not shown)" unit_info=% test_result=82
compound="O=C(NC1CCc2ccc(C(=O)N3CCC4(CCN(c5ccncc5)CC4)C3)cc21)c1cc(Cl)ccc1Cl (stereo not shown)" unit_info=% test_result=101
compound="O=C(NC1CCc2ccc(C(=O)N3CCC4(CCN(c5cc[n+]([O-])cc5)CC4)C3)cc21)c1ccccc1Cl (stereo not shown)" unit_info=% test_result=102
compound="CC(=O)NC1CCc2ccc(C(=O)N3CCC4(CCN(c5ccncc5)CC4)C3)cc21 (stereo not shown)" unit_info=% test_result=59
compound="N#Cc1ccccc1CN1CCC2(CC1)CCN(C(=O)c1ccc3c(c1)C(NC(=O)c1c(F)cccc1Cl)CC3)C2 (stereo not shown)" unit_info=% test_result=88
compound="O=C(NC1CCc2ccc(C(=O)N3CCC4(CCN(c5ccncc5)CC4)C3)cc21)C1CCC1 (stereo not shown)" unit_info=% test_result=100
compound="Cc1cc(F)ccc1S(=O)(=O)N(C)C1CCc2ccc(C(=O)N3CCC4(CC3)CCN(c3ccncc3)CC4)cc21 (stereo not shown)" unit_info=% test_result=100
compound="CN(C)c1ncc(CN2CCC3(CC2)CCN(C(=O)c2ccc4c(c2)C(NC(=O)c2cccc(Cl)c2Cl)CC4)C3)cn1 (stereo not shown)" unit_info=% test_result=80

Data origin: patent US8455475B2
